# test-protocol: Stability of the compound in human plasma assessed as parent compound remaining measured after 120 mins
# Format: ADME, cell-free
# assay-setup: read-out: Stabilty
measurement-kind: remaining at 2 h (%)

[[record]]
molecule = "CCC(CC)O[C@@H]1C=C(C(=O)O)C[C@H](NC(=O)NN)[C@H]1NC(C)=O"
result = 107


* * *

# test-protocol: Stability of the compound in human plasma assessed as parent compound remaining measured immediately
# Assay type: ADME, cell-free
# assay-setup: read-out: Stabilty
measurement-kind: remaining at 0 min (%)

[[record]]
molecule = "CCC(CC)O[C@@H]1C=C(C(=O)O)C[C@H](NC(=O)NN)[C@H]1NC(C)=O"
measurement_kind = "remaining at 0 min"
result = 100


* * *

# test-protocol: Inhibition of Influenza A virus (A/California/04/2009(H1N1)) Neuraminidase using MUNANA as substrate preincubated for 5 to 15 mins followed by substrate addition and measured after 30 mins by fluorescence spectrophotometric method
measurement-kind: IC50 (nM)

[[record]]
molecule = "CCC(CC)O[C@@H]1C=C(C(=O)O)C[C@H](NC(=O)NNC)[C@H]1NC(C)=O"
measurement_kind = "IC50"
scale_unit = "nM"
result = 249

[[record]]
molecule = "CCCCNNC(=O)N[C@H]1CC(C(=O)O)=C[C@@H](OC(CC)CC)[C@@H]1NC(C)=O"
measurement_kind = "IC50"
scale_unit = "nM"
result = 332

[[record]]
molecule = "CCC(CC)O[C@@H]1C=C(C(=O)O)C[C@H](NC(=O)NN)[C@H]1NC(C)=O"
measurement_kind = "IC50"
scale_unit = "nM"
result = 11.9

[[record]]
molecule = "CCC(CC)O[C@@H]1C=C(C(=O)O)C[C@H](NC(N)=O)[C@H]1NC(C)=O"
measurement_kind = "IC50"
scale_unit = "nM"
result = 8.7


* * *

# measured-on: Neuraminidase (Influenza A virus, UniProt B4URF0)
# Sequence (B4URF0 whole entry): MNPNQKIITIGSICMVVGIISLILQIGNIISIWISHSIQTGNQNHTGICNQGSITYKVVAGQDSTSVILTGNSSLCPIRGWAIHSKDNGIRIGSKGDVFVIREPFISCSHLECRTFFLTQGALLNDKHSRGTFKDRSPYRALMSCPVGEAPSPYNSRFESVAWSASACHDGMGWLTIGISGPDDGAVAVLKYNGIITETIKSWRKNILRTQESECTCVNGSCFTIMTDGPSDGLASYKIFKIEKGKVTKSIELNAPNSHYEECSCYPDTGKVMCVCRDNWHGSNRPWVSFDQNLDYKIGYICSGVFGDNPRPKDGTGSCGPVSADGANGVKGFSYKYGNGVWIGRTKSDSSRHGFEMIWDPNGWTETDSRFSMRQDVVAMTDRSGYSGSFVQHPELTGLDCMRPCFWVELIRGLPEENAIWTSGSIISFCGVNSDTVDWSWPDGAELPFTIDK
pIC50: −log10 of the molar value.
measurement-kind: pIC50

[[record]]
molecule = "CCCCCNNC(=O)N[C@H]1CC(C(=O)O)=C[C@@H](OC(CC)CC)[C@@H]1NC(C)=O"
measured_on = "Neuraminidase (Influenza A virus, UniProt B4URF0)"
measurement_kind = "pIC50"
result = 5.96

[[record]]
molecule = "CCCNNC(=O)N[C@H]1CC(C(=O)O)=C[C@@H](OC(CC)CC)[C@@H]1NC(C)=O"
measured_on = "Neuraminidase (Influenza A virus, UniProt B4URF0)"
measurement_kind = "pIC50"
result = 6.62

[[record]]
molecule = "CCC(CC)O[C@@H]1C=C(C(=O)O)C[C@H](NC(=O)NNC2CCOCC2)[C@H]1NC(C)=O"
measured_on = "Neuraminidase (Influenza A virus, UniProt B4URF0)"
measurement_kind = "pIC50"
result = 5.92

[[record]]
molecule = "CCC(CC)O[C@@H]1C=C(C(=O)O)C[C@H](NC(=O)NNC/C=C/c2ccccc2)[C@H]1NC(C)=O"
measured_on = "Neuraminidase (Influenza A virus, UniProt B4URF0)"
measurement_kind = "pIC50"
result = 5.11

[[record]]
molecule = "CCC(CC)O[C@@H]1C=C(C(=O)O)C[C@H](NC(=O)NNCc2ccccc2Cl)[C@H]1NC(C)=O"
measured_on = "Neuraminidase (Influenza A virus, UniProt B4URF0)"
measurement_kind = "pIC50"
result = 6.23

[[record]]
molecule = "CCCCCCCNNC(=O)N[C@H]1CC(C(=O)O)=C[C@@H](OC(CC)CC)[C@@H]1NC(C)=O"
measured_on = "Neuraminidase (Influenza A virus, UniProt B4URF0)"
measurement_kind = "pIC50"
result = 6.24

[[record]]
molecule = "CCC(CC)O[C@@H]1C=C(C(=O)O)C[C@H](NC(N)=O)[C@H]1NC(C)=O"
measured_on = "Neuraminidase (Influenza A virus, UniProt B4URF0)"
measurement_kind = "pIC50"
result = 6.60

[[record]]
molecule = "CCC(CC)O[C@@H]1C=C(C(=O)O)C[C@H](NC(=O)NNCc2cccc(OC)c2)[C@H]1NC(C)=O"
measured_on = "Neuraminidase (Influenza A virus, UniProt B4URF0)"
measurement_kind = "pIC50"
result = 6.49

[[record]]
molecule = "CCC(CC)O[C@@H]1C=C(C(=O)O)C[C@H](NC(=O)NNCCCc2ccccc2)[C@H]1NC(C)=O"
measured_on = "Neuraminidase (Influenza A virus, UniProt B4URF0)"
measurement_kind = "pIC50"
result = 5.04

[[record]]
molecule = "CCC(CC)O[C@@H]1C=C(C(=O)O)C[C@H](NC(=O)NNCc2ccccc2)[C@H]1NC(C)=O"
measured_on = "Neuraminidase (Influenza A virus, UniProt B4URF0)"
measurement_kind = "pIC50"
result = 5.36

[[record]]
molecule = "CCC(CC)O[C@@H]1C=C(C(=O)O)C[C@H](NC(=O)NNCc2cccc(Cl)c2)[C@H]1NC(C)=O"
measured_on = "Neuraminidase (Influenza A virus, UniProt B4URF0)"
measurement_kind = "pIC50"
result = 5.23

[[record]]
molecule = "CCCCCCNNC(=O)N[C@H]1CC(C(=O)O)=C[C@@H](OC(CC)CC)[C@@H]1NC(C)=O"
measured_on = "Neuraminidase (Influenza A virus, UniProt B4URF0)"
measurement_kind = "pIC50"
result = 5.30

[[record]]
molecule = "CCNNC(=O)N[C@H]1CC(C(=O)O)=C[C@@H](OC(CC)CC)[C@@H]1NC(C)=O"
measured_on = "Neuraminidase (Influenza A virus, UniProt B4URF0)"
measurement_kind = "pIC50"
result = 6.24

[[record]]
molecule = "CCC(CC)O[C@@H]1C=C(C(=O)O)C[C@H](NC(=O)NNCc2ccccc2OC)[C@H]1NC(C)=O"
measured_on = "Neuraminidase (Influenza A virus, UniProt B4URF0)"
measurement_kind = "pIC50"
result = 5.56

[[record]]
molecule = "CCC(CC)O[C@@H]1C=C(C(=O)O)C[C@H](NC(=O)NN)[C@H]1NC(C)=O"
measured_on = "Neuraminidase (Influenza A virus, UniProt B4URF0)"
measurement_kind = "pIC50"
result = 7.57

[[record]]
molecule = "CCC(CC)O[C@@H]1C=C(C(=O)O)C[C@H](NC(=O)NNCC(C)C)[C@H]1NC(C)=O"
measured_on = "Neuraminidase (Influenza A virus, UniProt B4URF0)"
measurement_kind = "pIC50"
result = 5.63

